Here the recorded % of Radioactivity in Microsomes, Human is given for each entry.
- run_description: Metabolite profile of [14C] compound (I) in human liver microsome incubations
- Format: in vitro ADME
- setup_conditions: (Ia) 20 μM, 15 min, 37° C., 2 mg/mL microsomal protein, 2.0 mM NADPH
readout_label: % of Radioactivity in Microsomes, Human (%)

>>> obs_value("Cc1nc(Nc2ncc(C(=O)Nc3c(Cl)cccc3CO)s2)cc(N2CCN(CCO)CC2)n1")
39.2
>>> obs_value("Cc1nc(Nc2ncc(C(=O)Nc3c(C)cccc3Cl)s2)cc(N2CC[N+]([O-])(CCO)CC2)n1")
4.0
>>> obs_value("Cc1nc(Nc2ncc(C(=O)Nc3c(C)cccc3Cl)s2)cc(N2CCN(CC(=O)O)CC2)n1")
1.6
>>> obs_value("Cc1nc(Nc2ncc(C(=O)Nc3c(C)cc(O)cc3Cl)s2)cc(N2CCN(CCO)CC2)n1")
39.2
>>> obs_value("Cc1nc(Nc2ncc(C(=O)Nc3c(C)cccc3Cl)s2)cc(N2CCNCC2)n1")
4.0
>>> obs_value("Cc1nc(Nc2ncc(C(=O)Nc3c(C)cccc3Cl)s2)cc(N2CCN(CCO)CC2)n1 [Parent (I), reference compound]")
35.5

Data provenance: patent US20060211705A1
